- System: Plasma
- PROCEDURE SUMMARY: Drug degradation in CD-1 mouse plasma at 0.5 ug/uL after 30 mins by MALDI-TOF MS analysis
- Type: ADME, cell-free
- RUN CONDITIONS: 0.5 h
Peptide text beside a SMILES is read from it. * marks the point of attachment. NH(4-amidinobenzyl) = N=C(N)c1ccc(CN*)cc1; X1 = N=C(N)NC/C=C/CN*

{"MOLECULE": "CC(=O)N[C@@H](CC(C)C)C(=O)N[C@@H](CC(C)C)C(=O)N[C@@H](CC(C)C)C(=O)N[C@@H](CC(C)C)C(=O)N[C@@H](CCCNC(=N)N)C(=O)N[C@H](C(=O)N[C@@H](CCCCN)C(=O)NC/C=C/CNC(=N)N)C(C)C (Ac-LLLLRVK-X1)", "Stability": "Unstable"}
{"MOLECULE": "CC(=O)N[C@H](CC(C)C)C(=O)N[C@@H](CC(C)C)C(=O)N[C@@H](CC(C)C)C(=O)N[C@@H](CC(C)C)C(=O)N[C@@H](CCCN=C(N)N)C(=O)N[C@H](C(=O)N[C@@H](CCCCN)C(=O)N[C@@H](CCCN=C(N)N)C(N)=O)C(C)C", "Stability": "Unstable"}
{"MOLECULE": "CC(=O)N[C@@H](CC(C)C)C(=O)N[C@@H](CC(C)C)C(=O)N[C@@H](CC(C)C)C(=O)N[C@@H](CC(C)C)C(=O)N[C@@H](CCCNC(=N)N)C(=O)N[C@H](C(=O)N[C@@H](CCCCN)C(=O)N[C@@H](CCCNC(=N)N)C(N)=O)C(C)C", "Stability": "Unstable"}
{"MOLECULE": "CC(=O)N[C@@H](CC(C)C)C(=O)N[C@@H](CC(C)C)C(=O)N[C@@H](CC(C)C)C(=O)N[C@@H](CC(C)C)C(=O)N[C@@H](CCCN=C(N)N)C(=O)N[C@H](C(=O)N[C@@H](CCCCN)C(=O)NCc1ccc(C(=N)N)cc1)C(C)C (Ac-LLLLRVK-{NH(4-amidinobenzyl)})", "Stability": "Unstable"}
{"MOLECULE": "CCCC[C@H](NC(C)=O)C(=O)N[C@@H](CC(C)C)C(=O)N[C@@H](CC(C)C)C(=O)N[C@@H](CCCC)C(=O)N[C@@H](CCCNC(=N)N)C(=O)N[C@H](C(=O)N[C@@H](CCCCN)C(=O)N[C@@H](CCCNC(=N)N)C(N)=O)C(C)C", "Stability": "Unstable"}

The origin of these recorded values is ChEMBL document CHEMBL3112425.
